target: human α3β4 nicotinic receptor in Xenopus oocytes, 1:9 α:β cRNA (putative two-α form) (Homo sapiens, UniProt P30926+P32297); construct: gene CHRNA3; untagged; Xenopus laevis oocytes, 1:9 α:β cRNA; heteropentamer, putative (α3)2(β4)3; assay: two-electrode voltage clamp, partial dose-response curves; assay type: cell-based; conditions: agonist, -70 mV, pH 7.2, nominally Ca-free, 0.5 µM atropine, 18°C, low concentrations
Strictly below 1 in Potency ratio: met. Otherwise: not met.

Compound	Assigned category
O=c1cccc2n1C[C@@H]1CNC[C@H]2C1	not met
CN1[C@@H](CC(=O)c2ccccc2)CCC[C@H]1C[C@H](O)c1ccccc1	not met
CN1CCC[C@H]1c1cccnc1	not met
Clc1ccc(C2CC3CCC2N3)cn1 (centres unmarked) [epibatidine]	not met

Okay, now this compound:
Ask | Identify whether the compound "C[N+](C)(C)CCOC(N)=O" records Potency ratio below 1.
Reply | met
